- tgt: P. falciparum apicoplast DNA polymerase (Pf-apPOL) (Plasmodium falciparum)
- method: Fluorescence-based high-throughput DNA polymerase assay (molecular beacon), primary screen and dose-response
- Assay type: biochemical
- condition_context: DRC-2; 5'; concentration 40
measure: % inhibition Apo pol 5' (%)
Numbers only here, please. The scale is %.

Solved entries:
compound: Cc1ccc(NC(=O)Cn2ccc3c(=O)[nH]ccc32)cc1F [Molecule 48, O=C(Cn1ccc2c1cc[nH]c2=O)Nc1ccc(c(c1)F)C]
u: %
observed_result: 46
--
compound: CC(C)(C)c1cc(C(=O)C(C#N)=NNc2cccc(Cl)c2)no1
u: %
observed_result: 46
--
compound: CCOC(=O)C1=C2c3cc(OC)c(OC)cc3CC(C)(C)N2C(=O)C1=O
u: %
observed_result: 41

We next turn to a different compound, shown below.
Reported % inhibition Apo pol 5', compound O=C1c2ccccc2C(=O)c2c1oc1c3c(ccc21)OCN(C1CCCC1)C3 : ____
47

###

- tgt: P. falciparum apicoplast DNA polymerase (Pf-apPOL) (Plasmodium falciparum, UniProt Q8ILY1)
- Sequence (Q8ILY1 entry or part of it): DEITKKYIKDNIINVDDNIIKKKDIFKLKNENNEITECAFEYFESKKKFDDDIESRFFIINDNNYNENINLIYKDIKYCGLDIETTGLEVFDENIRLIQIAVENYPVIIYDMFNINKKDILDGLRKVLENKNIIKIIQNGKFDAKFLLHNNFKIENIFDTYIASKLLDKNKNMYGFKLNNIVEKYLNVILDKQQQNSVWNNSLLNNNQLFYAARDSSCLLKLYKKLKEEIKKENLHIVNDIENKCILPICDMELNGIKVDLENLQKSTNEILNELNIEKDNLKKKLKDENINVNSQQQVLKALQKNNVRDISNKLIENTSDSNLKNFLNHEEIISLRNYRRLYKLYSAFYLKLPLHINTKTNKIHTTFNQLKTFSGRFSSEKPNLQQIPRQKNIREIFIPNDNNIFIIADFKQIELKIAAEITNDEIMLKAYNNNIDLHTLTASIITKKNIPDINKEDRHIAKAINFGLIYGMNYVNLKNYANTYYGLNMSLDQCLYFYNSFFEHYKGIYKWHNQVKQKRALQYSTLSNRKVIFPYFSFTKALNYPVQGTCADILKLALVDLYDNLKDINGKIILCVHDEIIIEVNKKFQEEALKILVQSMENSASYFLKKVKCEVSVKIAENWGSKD
- method: Fluorescence-based high-throughput DNA polymerase assay (molecular beacon), primary screen and dose-response
- Type: biochemical
- condition_context: DRC-1; concentration 40; 180'
Records here are stratified by % inhibition apPOL 180'; strata: category 1 = under 70%, category 2 = from 70% up to 80%, category 3 = 80% and over

Take a look at these entries with their results.
compound: COc1ccc(-c2occ(C(=O)O)c2C(=O)O)cc1 [KU0021536]
tgt: P. falciparum apicoplast DNA polymerase (Pf-apPOL) (Plasmodium falciparum, UniProt Q8ILY1)
answer_label: category 3
--
compound: CCOc1ccc2cc(C3=NN(C(=O)CCC(=O)O)C(c4ccc(C)cc4)C3)c(=O)[nH]c2c1 (stereo not shown) [KU0056200]
tgt: P. falciparum apicoplast DNA polymerase (Pf-apPOL) (Plasmodium falciparum, UniProt Q8ILY1)
answer_label: category 1
--
compound: O=C(O)c1cc([N+](=O)[O-])c(N2CCN(c3cccc(C(F)(F)F)c3)CC2)c([N+](=O)[O-])c1 [KU0076747]
tgt: P. falciparum apicoplast DNA polymerase (Pf-apPOL) (Plasmodium falciparum, UniProt Q8ILY1)
answer_label: category 2
--
compound: COc1cc(/C=C2\C(=O)N(c3ccc(C(=O)O)cc3)N=C2C(F)(F)F)ccc1OCC(C)C [KU0069072]
tgt: P. falciparum apicoplast DNA polymerase (Pf-apPOL) (Plasmodium falciparum, UniProt Q8ILY1)
answer_label: category 2
--
compound: COc1ccc(C=C2Oc3c(ccc4c3CN(Cc3ccco3)CO4)C2=O)c(OC)c1 [KU0199404]
tgt: P. falciparum apicoplast DNA polymerase (Pf-apPOL) (Plasmodium falciparum, UniProt Q8ILY1)
answer_label: category 3
--
compound: Cc1ccnc(NS(=O)(=O)c2ccc(-n3cccc3)cc2)n1 [KU0034899]
tgt: P. falciparum apicoplast DNA polymerase (Pf-apPOL) (Plasmodium falciparum, UniProt Q8ILY1)
answer_label: category 1
--
compound: Nc1ncnc(NC2CCCCC2)c1[N+](=O)[O-] [KU0193018]
tgt: P. falciparum apicoplast DNA polymerase (Pf-apPOL) (Plasmodium falciparum, UniProt Q8ILY1)
answer_label: category 3
--
compound: O=C1c2ccccc2C(=O)c2c1oc1c3c(ccc21)OCN(C1CCCC1)C3 [KU0064306]
tgt: P. falciparum apicoplast DNA polymerase (Pf-apPOL) (Plasmodium falciparum, UniProt Q8ILY1)
answer_label: category 3
--
compound: O=C(Nc1c2c(nn1-c1ccccc1)CSC2)c1ccco1 [KU0055213]
tgt: P. falciparum apicoplast DNA polymerase (Pf-apPOL) (Plasmodium falciparum, UniProt Q8ILY1)
answer_label: category 2
--
compound: O=C(O)c1nc(-c2ccccc2)nc2c1OCO2 [Molecule 45, OC(=O)c1nc(nc2c1OCO2)c1ccccc1]
tgt: P. falciparum apicoplast DNA polymerase (Pf-apPOL) (Plasmodium falciparum, UniProt Q8ILY1)
answer_label: category 1

Using the reported % inhibition apPOL 180', which band applies to CCCCCc1c2c(cc(O)c1C(=O)O)OC(=O)c1c(cc(OC)cc1C(=O)CCCC)O2 [Molecule 24] ?
category 3

Which class is correct for the following compound? Cc1ccc(C2=N/C(=C\c3ccc(I)o3)C(=O)O2)cc1[N+](=O)[O-] [KU0073890]
category 3

Please classify: O=[N+]([O-])c1ccc(SCc2ccco2)c2cccnc12 [KU0034480]
category 1

Just checking, what class would you give CCCN1COc2ccc3c(=O)c(-c4ccccc4)coc3c2C1 [KU0199556] here?
category 3

State the class of the compound shown: COc1ccc(NC(=O)Cn2nc3c(cc2=O)CCC3)cc1Cl [Molecule 4, COc1ccc(cc1Cl)NC(=O)Cn1nc2CCCc2cc1=O]
category 3

###

- tgt: P. falciparum apicoplast DNA polymerase (Pf-apPOL) (Plasmodium falciparum, UniProt Q8ILY1)
- method: Fluorescence-based high-throughput DNA polymerase assay (molecular beacon), primary screen and dose-response
- Type: biochemical
- condition_context: DRC-1; read at 180'; concentration 2.5
- Description: The HT assay employs a molecular beacon, a stem-loop DNA template with a Cy3 dye and the Black Hole Quencher on the 3′ and 5′ ends of the DNA, respectively. Pf-apPOL concentration is based on a calculated absorptivity of ε280 = 56750 M^−1 cm^−1. […] To identify apPOL inhibitors we utilised our previously developed high-throughput DNA polymerase assay. […] The assay accurately recapitulates the kinetic behaviour of apPOL, as measured through more conventional low-throughput gel-based assays. […]
Given measured % inhibition apPOL 180' 2.5, output met if it is greater than or equal to 10% and not met if not.

compound: COc1ccc(C2CC(c3ccc(Cl)cc3Cl)Nc3nc(N)nn32)cc1OC (stereo not shown)
answer_label: met

Please check the record CCCc1ccc(Oc2coc3cc(OC)ccc3c2=O)cc1 and state if its % inhibition apPOL 180' 2.5 is at or above 10%.
met

Does the compound Cn1nc(-c2nc(-c3ccccc3)no2)c2c1CCN(C(=O)Cc1cccs1)C2 have recorded % inhibition apPOL 180' 2.5 that is 10% or more?
not met

Kindly determine if % inhibition apPOL 180' 2.5 recorded for Cc1cccc(-c2noc(C(=O)NNC(=O)C(Cl)(Cl)Cl)n2)c1 is above or exactly 10%.
not met

For this compound, is measured % inhibition apPOL 180' 2.5 10% or higher? CC(C)CC(C(=O)O)N1C(=O)C2C3C=CC(C2C1=O)C1C(=O)N(C(CC(C)C)C(=O)O)C(=O)C31 (stereo not shown)
met

Does the compound Cc1nc(C)c2c(n1)N(CC1CCCCC1)C(=O)CC2 have recorded % inhibition apPOL 180' 2.5 that is 10% or more?
met

Does Cc1ccsc1Cn1c(C)ccc1C have a reported % inhibition apPOL 180' 2.5 of at least 10%?
not met

###

- tgt: bacteriophage T4 DNA polymerase (Enterobacteria phage T4, UniProt P04415)
- Construct: made in house
- Sequence (P04415 whole entry): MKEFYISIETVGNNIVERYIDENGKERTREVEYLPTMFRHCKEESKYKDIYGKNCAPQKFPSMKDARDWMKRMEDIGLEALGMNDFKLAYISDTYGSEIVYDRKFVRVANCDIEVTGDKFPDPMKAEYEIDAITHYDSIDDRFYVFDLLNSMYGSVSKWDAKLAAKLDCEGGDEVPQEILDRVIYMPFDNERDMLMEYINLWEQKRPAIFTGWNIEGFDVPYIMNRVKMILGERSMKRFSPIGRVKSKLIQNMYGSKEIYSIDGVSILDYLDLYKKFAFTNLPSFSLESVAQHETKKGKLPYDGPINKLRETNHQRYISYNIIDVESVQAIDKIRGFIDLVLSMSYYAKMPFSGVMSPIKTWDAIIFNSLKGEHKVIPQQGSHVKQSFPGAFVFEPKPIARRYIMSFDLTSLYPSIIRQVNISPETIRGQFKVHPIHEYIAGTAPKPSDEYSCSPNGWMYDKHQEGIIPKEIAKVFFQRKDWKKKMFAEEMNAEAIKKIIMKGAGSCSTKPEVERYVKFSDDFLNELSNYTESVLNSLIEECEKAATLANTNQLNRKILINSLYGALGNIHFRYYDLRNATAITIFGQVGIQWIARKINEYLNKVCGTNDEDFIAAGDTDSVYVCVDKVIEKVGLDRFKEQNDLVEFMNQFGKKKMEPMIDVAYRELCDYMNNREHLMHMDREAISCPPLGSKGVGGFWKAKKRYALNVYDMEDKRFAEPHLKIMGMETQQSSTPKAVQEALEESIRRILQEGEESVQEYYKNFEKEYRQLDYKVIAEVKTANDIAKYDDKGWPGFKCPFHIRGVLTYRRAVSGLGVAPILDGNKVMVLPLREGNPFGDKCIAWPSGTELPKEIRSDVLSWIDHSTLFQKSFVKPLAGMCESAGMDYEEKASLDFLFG
- method: Counter-screen against bacteriophage T4 DNA polymerase
- Assay type: biochemical
- condition_context: DRC-2; 10'; concentration 80
Think of 10% as a floor: if % inhibition T4 10' stands on it or above, it is label 1; beneath it, label 0.

Decide: % inhibition T4 10' of Cc1ccc(C)n1-c1ccc(C(=O)NNC(=O)c2ccc3nccnc3c2)cc1 >= 10%?
label 1

Has O=C(Cn1ccc2c(=O)[nH]ccc21)Nc1cc(F)ccc1F [Molecule 42, O=C(Cn1ccc2c1cc[nH]c2=O)Nc1cc(F)ccc1F] a recorded % inhibition T4 10' greater than or equal to 10%?
label 0

###

- tgt: P. falciparum apicoplast DNA polymerase (Pf-apPOL) (Plasmodium falciparum, UniProt Q8ILY1)
- method: Fluorescence-based high-throughput DNA polymerase assay (molecular beacon), primary screen and dose-response
- Type: biochemical
- condition_context: DRC-1; 10'; concentration 20
measure: % inhibition Apo pol 10' (%)
Field format: number, assumed %, no unit text.

Some solved entries appear below for comparison.
compound: O=C(Nc1c2c(nn1-c1ccc(Oc3ccccc3)cc1)CSC2)c1ccco1
% inhibition Apo pol 10' / %: 76.7664
//
compound: O=C(O)CC1SC(c2ccc3c(c2)OCO3)=NC1=O (centres unmarked)
% inhibition Apo pol 10' / %: 37.0336
//
compound: COc1ccc(CNC(=O)Cn2nc3c(c2NC(=O)Cc2cccs2)CSC3)cc1
% inhibition Apo pol 10' / %: 61.7989

Reported % inhibition Apo pol 10' for O=C1NCCCn2cc(S(=O)(=O)Nc3ccccc3)cc21 : what is it?
40.9778

Given the compound Cc1cc(C)c(O)c(/N=C/c2cc([N+](=O)[O-])cc(Br)c2O)c1 , what is its reported % inhibition Apo pol 10'?
36.9804

###

- tgt: UniProt:Q8ILY1
- method: Fluorescence-based high-throughput DNA polymerase assay (molecular beacon), primary screen and dose-response
- Assay type: biochemical
- condition_context: DRC-2; 180'; concentration 20
measure: % inhibition apPOL 180' (%)
Write the answer as a number in %, unit excluded.

compound: CN(C)C1C(c2ccccc2)=C(c2ccccc2)SC(c2ccccc2)C1[N+](=O)[O-] (centres unmarked)
% inhibition apPOL 180', %: 47

Looking for the measured % inhibition apPOL 180' of Cl.NC(CO)C(=O)NNCc1ccc(O)c(O)c1O (centres unmarked) , can you help?
67

What value of % inhibition apPOL 180' has been reported for the following compound? COc1ccc(C(=O)N2CCc3c(nc4cc(-c5ccccc5Cl)[nH]n4c3=O)C2)cn1
48

What measured % inhibition apPOL 180' goes with CCCCc1ccc(NC(=O)CSc2nc(O)c(C#N)c(C3CCCCC3)n2)c(C)c1 ?
40

What value of measured % inhibition apPOL 180' is listed for O=C(NNC(=O)c1ccc(Cl)cc1)C(=O)NNC(=O)c1ccc(Cl)cc1 ?
48

Would you mind telling me what % inhibition apPOL 180' value was observed for O=C1N=C(Nc2cccc(Cl)c2Cl)S/C1=C\c1ccco1 [Molecule 3, O=C1N=C(S/C/1=C\c1ccco1)Nc1cccc(c1Cl)Cl] ?
62
